Where these numbers come from: patent US10676504B2

Biological target: HDAC3 (Homo sapiens)
Construct: The recombinant, full-length HDAC protein (BPS Biosciences) was incubated; purchased BPS Biosciences
Sequence (O15379 whole entry): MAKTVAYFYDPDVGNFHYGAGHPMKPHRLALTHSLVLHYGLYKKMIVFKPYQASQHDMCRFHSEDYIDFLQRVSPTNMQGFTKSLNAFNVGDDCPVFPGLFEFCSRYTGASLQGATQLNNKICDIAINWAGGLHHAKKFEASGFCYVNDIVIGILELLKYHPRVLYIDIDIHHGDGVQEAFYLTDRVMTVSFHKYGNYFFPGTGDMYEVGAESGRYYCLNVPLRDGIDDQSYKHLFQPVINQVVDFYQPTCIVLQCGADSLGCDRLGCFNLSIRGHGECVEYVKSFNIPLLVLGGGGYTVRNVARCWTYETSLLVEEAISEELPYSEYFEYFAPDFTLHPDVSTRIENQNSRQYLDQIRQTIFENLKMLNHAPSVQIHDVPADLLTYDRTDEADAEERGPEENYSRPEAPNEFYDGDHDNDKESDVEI
Sequence (Q9Y618 395-489 partner limits assumed): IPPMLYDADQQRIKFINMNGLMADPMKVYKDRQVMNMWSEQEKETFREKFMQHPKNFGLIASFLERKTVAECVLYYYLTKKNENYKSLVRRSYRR
Assay: HDAC biochemical assay of P5-P12 (Table P1)
Details: Table P1
pIC50: −log10 of the molar value.
quantity-kind: pIC50

(a) CCCCCCCC(=O)SCCC=CC1CC(=O)NCc2cc(ccn2)C2=NC(C)(CS2)C(=O)NC(C(C)C)C(=O)O1 (stereo not drawn) [Compound P7, Depsipeptide Pyridyl “OUT”]
(b) CC(C)[C@@H]1NC(=O)[C@]2(C)CSC(=N2)c2ccnc(c2)CNC(=O)C[C@@H](/C=C/CCS)OC1=O [Compound P8, Depsipeptide Pyridyl “OUT” Thiol]
(c) CCCCCCCC(=O)SCC/C=C/[C@@H]1CC(=O)NCc2cc(ccn2)C2=N[C@@](C)(CS2)C(=O)N[C@@H](C(C)C)C(=O)N1 [Compound P11, Peptide Isostere Pyridyl “OUT”]
Give the order of the entries above, sorted from least to greatest pIC50. Output spec: labels arranged per the requested ranking.
c, a, b
(c: 6.07, a: 6.50, b: 8.64)
